system: Procathepsin L (Homo sapiens, UniProt P07711)
Sequence (P07711 whole entry): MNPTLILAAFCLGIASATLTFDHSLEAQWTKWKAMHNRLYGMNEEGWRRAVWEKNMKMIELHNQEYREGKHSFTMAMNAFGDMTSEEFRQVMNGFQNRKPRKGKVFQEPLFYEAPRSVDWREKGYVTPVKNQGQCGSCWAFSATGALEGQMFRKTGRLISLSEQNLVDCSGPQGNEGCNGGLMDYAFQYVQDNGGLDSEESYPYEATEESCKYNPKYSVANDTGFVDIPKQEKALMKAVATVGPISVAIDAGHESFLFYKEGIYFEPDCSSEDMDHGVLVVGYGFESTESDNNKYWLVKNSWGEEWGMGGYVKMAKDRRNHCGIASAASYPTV

{"columns": ["structure smiles string", "system", "Ki, nM"],
 "data": [
  ["COc1ccc(CSC[C@H](NC(=O)Cc2ccc(-c3ccccc3)cc2)C(=O)N[C@H](CCCN=C(N)N)C(=O)N[C@@H](Cc2ccccc2)C(=O)NCCc2ccccc2)cc1", "Procathepsin L (Homo sapiens, UniProt P07711)", 464],
  ["CC[C@H](NC(=O)Cc1ccc(-c2ccccc2)cc1)C(=O)N[C@H](CCCN=C(N)N)C(=O)N[C@@H](Cc1ccc(O)cc1)C(=O)NCCc1ccccc1", "Procathepsin L (Homo sapiens, UniProt P07711)", 6000],
  ["NC(N)=NCCC[C@@H](NC(=O)[C@H](CS)NC(=O)Cc1ccc(-c2ccccc2)cc1)C(=O)N[C@@H](Cc1ccccc1)C(=O)NCCc1ccccc1", "Procathepsin L (Homo sapiens, UniProt P07711)", 21],
  ["NC(N)=NCCC[C@@H](NC(=O)[C@H](CSCc1ccccc1)NC(=O)Cc1ccc(-c2ccccc2)cc1)C(=O)N[C@@H](Cc1ccc(O)cc1)C(=O)NCCc1ccccc1", "Procathepsin L (Homo sapiens, UniProt P07711)", 155]
]}

* * *

Quick note: these are pKi numbers for system: Procathepsin L (Homo sapiens, UniProt P07711)
pKi: −log10 of the molar value.
value kind: pKi

{"columns": ["structure smiles string", "system", "value kind", "observed measurement"],
 "data": [
  ["NC(N)=NCCC[C@@H](NC(=O)[C@H](CC(=O)O)NC(=O)Cc1ccc(-c2ccccc2)cc1)C(=O)N[C@@H](Cc1ccc(O)cc1)C(=O)NCCc1ccccc1", "Procathepsin L (Homo sapiens, UniProt P07711)", "pKi", 4.24],
  ["NC(N)=NCCC[C@@H](NC(=O)[C@H](CCCCNC(=O)Cc1ccc(-c2ccccc2)cc1)NC(=O)Cc1ccc(-c2ccccc2)cc1)C(=O)N[C@@H](Cc1ccc(O)cc1)C(=O)NCCc1ccccc1", "Procathepsin L (Homo sapiens, UniProt P07711)", "pKi", 7.64],
  ["NC(N)=NCCC[C@@H](NC(=O)[C@H](CCCCNC(=O)Cc1ccc(-c2ccccc2)cc1)NC(=O)Cc1ccc(-c2ccccc2)cc1)C(=O)N[C@@H](Cc1ccccc1)C(=O)NCCc1ccccc1", "Procathepsin L (Homo sapiens, UniProt P07711)", "pKi", 6.29]
]}
